Could you please report measured IC50 for the items listed next?
Tested System: PfPanK1 (Plasmodium falciparum, UniProt Q8ILP4)
Sequence (Q8ILP4 1-519): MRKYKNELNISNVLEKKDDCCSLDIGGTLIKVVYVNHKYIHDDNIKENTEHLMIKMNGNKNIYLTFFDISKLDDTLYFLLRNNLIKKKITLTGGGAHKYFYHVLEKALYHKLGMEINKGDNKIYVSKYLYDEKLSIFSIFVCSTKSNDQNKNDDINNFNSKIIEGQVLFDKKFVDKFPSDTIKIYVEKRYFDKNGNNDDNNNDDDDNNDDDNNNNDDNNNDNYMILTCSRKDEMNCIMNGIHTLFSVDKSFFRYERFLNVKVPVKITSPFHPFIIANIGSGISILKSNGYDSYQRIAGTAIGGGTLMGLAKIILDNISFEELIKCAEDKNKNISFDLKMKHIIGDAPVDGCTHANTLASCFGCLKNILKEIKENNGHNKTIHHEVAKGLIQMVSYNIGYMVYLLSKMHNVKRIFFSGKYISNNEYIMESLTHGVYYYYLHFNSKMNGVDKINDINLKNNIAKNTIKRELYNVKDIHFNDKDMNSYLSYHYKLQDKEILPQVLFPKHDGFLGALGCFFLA
Assay Info: Screening of natural compounds for PfPanK inhibitors and IC50 determination (recombinant enzyme, ADP Hunter Plus)
Format: biochemical
Test Parameters: recombinant PfPanK1; mean ± SEM
One number for each entry, in µM.

// known answers, use as guide
Per the records, this compound ( OC[C@H]1O[C@@H](Oc2ccc(/C=C/c3cc(O)c4c(c3)O[C@H](c3ccc(O)cc3)[C@H]4c3cc(O)cc(O)c3)cc2)[C@H](O)[C@@H](O)[C@@H]1O [Gnemonoside D] ) has IC50 equal to 57.5

In plain terms, CC(=O)Oc1cccc2c(=O)c3c4c(c(=[N+]=[N-])c=3c(=O)c12)C(OC(C)=O)C(C)(OC(C)=O)C(OC(C)=O)C4OC(C)=O (stereo not drawn) has a documented IC50 of 36.2

Let us examine a further case.
Form field IC50, entry `COc1c2c(c(O)c3c(=O)c4c(oc13)[C@@H](O)CC[C@@H]4O)-c1c3c(c4cc(C)n(C)c(=O)c4c1O)OCO[C@H]3C2` : 57.6

###

Tested System: PfPanK1 (Plasmodium falciparum, UniProt Q8ILP4)
Sequence (Q8ILP4 1-519): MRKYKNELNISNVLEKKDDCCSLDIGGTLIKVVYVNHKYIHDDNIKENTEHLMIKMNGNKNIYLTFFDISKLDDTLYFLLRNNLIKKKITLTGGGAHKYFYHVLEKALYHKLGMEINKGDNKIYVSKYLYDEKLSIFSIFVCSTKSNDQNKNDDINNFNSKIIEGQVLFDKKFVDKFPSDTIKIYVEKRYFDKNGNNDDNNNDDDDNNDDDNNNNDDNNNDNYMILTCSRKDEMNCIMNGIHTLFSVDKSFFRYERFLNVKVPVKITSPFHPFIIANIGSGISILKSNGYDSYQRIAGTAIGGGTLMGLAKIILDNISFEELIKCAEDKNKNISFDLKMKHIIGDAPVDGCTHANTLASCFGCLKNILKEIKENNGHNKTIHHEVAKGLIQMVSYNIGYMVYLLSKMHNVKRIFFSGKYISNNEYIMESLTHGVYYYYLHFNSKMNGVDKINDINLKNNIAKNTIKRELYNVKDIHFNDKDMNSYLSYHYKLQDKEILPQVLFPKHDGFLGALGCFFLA
Type: biochemical
Test Parameters: metal ion 5 mM; substrate pantothenate; relative to MgCl2; pH 8.4, 37°C
Hi there, I'd appreciate the recorded Relative activity (%) Pantothenate for every entry that follows.
One number for each entry, in %.

Worked set:
Lab book: Relative activity (%) Pantothenate of [Cl-].[Li+] [LiCl2] noted as 37.9

Entry [Cl-].[Cl-].[Mg+2] [MgCl2] , Relative activity (%) Pantothenate reported as 100

Each of the following entries comes with a recorded value; kindly state Relative activity (%) Pantothenate for each.
1. [Cl-].[Cl-].[Zn+2] [ZnCl2]
2. [Ca+2].[Cl-].[Cl-] [CaCl2]

35.6
39.9

# batch: return Relative activity (%) Pantothenate for each of the 5 molecules below
1. [Cl][Mn][Cl] [MnCl2]
2. [Cl][Fe][Cl] [FeCl2]
3. [Cl][Cu][Cl] [CuCl2]
4. [Cl][Ni][Cl] [NiCl2]
5. [Cl-].[K+] [KCl]

[41.7, 104.7, 16.4, 49.0, 29.7]
